# Tested on: K562 CRISPRi cells
# protocol: Perturb-seq pooled growth measurement (sgRNA counts, growth phenotype γ, relative activity)
# Type: cell-based, human
# testParameters: γ relative to perfectly matched sgRNA (_00) of the same gene, day 10
hey, just use class 1 if measured relative_activity_day10 is less than 0.6, otherwise class 0

substance: CAD_ + _27440280.23-P1P2_03 (guide GGCTGGTGAGAAGCCGGGCG; listed as DNA, chemistry not fully specified)
category: class 0

// query Given the entry RPS18_ + _33239917.23-P1P2_01 (guide GCTGCAATGCCGCTGGATCA; listed as DNA, chemistry not fully specified) , would its reported relative_activity_day10 be below 0.6?
// result class 0

// query Given the entry CDC23_ −_137548987.23-P1P2_11 (guide GACAGCCACCGGGACCACGG; listed as DNA, chemistry not fully specified) , would its reported relative_activity_day10 be below 0.6?
// result class 1

// query Given the entry RPL9_ + _39460483.23-P1P2_07 (guide GGATGTTTCTGCGCTCGTGG; listed as DNA, chemistry not fully specified) , would its reported relative_activity_day10 be below 0.6?
// result class 1

// query Given the entry RPL9_ + _39460483.23-P1P2_05 (guide GGATGTTTCGGTGCTCGTGG; listed as DNA, chemistry not fully specified) , would its reported relative_activity_day10 be below 0.6?
// result class 1

Source listed as patent US20220259593A1.
